Recorded values, source ChEMBL document CHEMBL4219134.

# Tested on: NCI-H1299
# method-notes: Antiproliferative activity in human H1299 cells
# Assay type: functional, cell-based

| structure-string | IC50 |
| --- | --- |
| O=C1c2ccccc2C(=O)c2c1cc(S(=O)(=O)Nc1ccc(C(F)(F)F)cc1)c(O)c2O | 25.6 to 26 µM |

###

# Species on record: Homo sapiens
# method-notes: Inhibition of enolase (unknown origin) at 5 uM using 2-PG relative to control
We'd kindly ask you to apply these inhibition classes: bottom range (below 7%), center range (7% to below 10%), top range (10% or more)

| structure-string | cat |
| --- | --- |
| N#Cc1cccc(S(=O)(=O)Nc2cc3oc4cccc(O)c4c(=O)c3c(O)c2O)c1 | top range |
| O=C1c2ccccc2C(=O)c2c1cc(S(=O)(=O)Nc1ccc(C(F)(F)F)cc1)c(O)c2O | top range |
| CC(C)(C)c1ccc(S(=O)(=O)Nc2cc3oc4cccc(O)c4c(=O)c3c(O)c2O)cc1 | bottom range |
| O=c1c2c(O)cccc2oc2cc(NS(=O)(=O)c3ccc(Br)cc3)c(O)c(O)c12 | bottom range |
| O=c1c2c(O)cccc2oc2cc(NS(=O)(=O)Cc3ccccc3)c(O)c(O)c12 | top range |
| O=c1c2c(O)cccc2oc2cc(NS(=O)(=O)c3ccc(-c4ccccc4)cc3)c(O)c(O)c12 | center range |
| O=c1c2c(O)cccc2oc2cc(NS(=O)(=O)c3ccc(C4CCCCC4)cc3)c(O)c(O)c12 | center range |
